For each record, write down the corresponding switch fluorescence ratio.
system: ATP; assay: switch fluorescence ratio, 500 uM ATP over buffer (Cy3 cluster intensity, sum of 5 cycles each) (fold (ratio)); higher = stronger signal-on switching upon ATP binding; sequences stand for … in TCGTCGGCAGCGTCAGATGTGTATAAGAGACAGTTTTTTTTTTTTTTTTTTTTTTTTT…TC; conditions: aptamer strand: ATP DNA aptamer (quencher-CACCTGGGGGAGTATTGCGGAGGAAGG + anchor), 100 nM annealed; ATP concentration: 500 uM;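 note: ATP exposure 15 min at 22 °C before imaging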
I only need the number, thanks.

Return reported switch fluorescence ratio. Input sequence: `CACGAAGACC`
1.2

Tell me its switch fluorescence ratio given `TTTGTGTAAT` as the entry.
0.989

Given `TTGGTTTTTG` , respond with its switch fluorescence ratio.
1

Check the records and state switch fluorescence ratio for `GGGATAGATT`
1.03

Please look at this sequence and report its switch fluorescence ratio: `TCAGGTCTGT`
0.996

State its switch fluorescence ratio for this sequence: `GCGGGGTATG`
0.991

State, in one line, measured switch fluorescence ratio of `GAAGTTTTGT`
1.02

Tell me measured switch fluorescence ratio for `AAATTATGCG` please.
0.99

Tell me measured switch fluorescence ratio for `GGGGTGGAGT` please.
0.971

Consider the sequence `TGGTTTTGTT` and give its recorded switch fluorescence ratio.
1.01

Item `CATGTGTGGG` : provide switch fluorescence ratio
1.01

Identify the reported switch fluorescence ratio for the following entry. `ACCCTGCAGA`
1.06

Please report switch fluorescence ratio for the following sequence: `ACTAGTATGG`
1.03

Please give measured switch fluorescence ratio of the following entry: `TTAGATTGCG`
0.973

Give reported switch fluorescence ratio value for `TACTGGGTTC`
0.987

Report switch fluorescence ratio for `GACGGGGAGA`
1.06

Specify reported switch fluorescence ratio for the sequence shown: `TACATGAAGA`
1.02

Complete the entry with switch fluorescence ratio for `GTTAGCTTAG`
0.99

Please give measured switch fluorescence ratio of the following entry: `AAGCGGTGAG`
0.989

Determine from records and report switch fluorescence ratio for `ACCATTAATT`
0.991

Return value of switch fluorescence ratio for input `ATATGGTGAT` , no commentary.
1

Return reported switch fluorescence ratio. Input sequence: `GTAATGATGG`
0.994

Answer with the recorded switch fluorescence ratio of `AGTTACGGTG` only.
1

Answer with reported switch fluorescence ratio of `GGGAGGCCAT`
0.968

Could you please provide reported switch fluorescence ratio for `CAGGGCTTGA` ? Thanks!
1.03

Return value of switch fluorescence ratio for input `AAGGGGAAAG` , no commentary.
0.998

Determine its reported switch fluorescence ratio: `ATAGCTAGTG`
0.973

Provide one value: measured switch fluorescence ratio of `GTGAGATGGG`
0.984

Return switch fluorescence ratio for the following sequence: `TAAACGAAGT`
0.956

Write down switch fluorescence ratio measured for item `CAGTATCTGA`
1

Identify the reported switch fluorescence ratio for the following entry. `GCTTGGAAGC`
0.991

State its switch fluorescence ratio for this sequence: `GGGGCGTTCG`
1

Look up and report measured switch fluorescence ratio for this entry: `ACTGAGTTGT`
1.04

Answer with the recorded switch fluorescence ratio of `TTGGTGACGC` only.
1.01

Consider the sequence `TGGTGAACGT` and give its recorded switch fluorescence ratio.
1

Note down switch fluorescence ratio recorded for `TACTCGCTGG`
1.07

Fill in switch fluorescence ratio for record `TGACTAAACA`
1.06

Provide measured switch fluorescence ratio value, entry: `GAGTGAATTT`
1.01

Please give the documented switch fluorescence ratio of `GAAGTAGGGG`
0.977

Assign switch fluorescence ratio to the following record: `CTTCTACCTG`
1.01

Give recorded switch fluorescence ratio. `TTTCCTTTGA`
1.06

Answer with the recorded switch fluorescence ratio for the sequence listed here: `TATTTTGGTT`
0.999

Entry `CGGAGCGCGT` needs its switch fluorescence ratio filled in; supply it.
0.991

Please supply the value of reported switch fluorescence ratio for the item `CTGAAGGGCT`
1.04

Specify switch fluorescence ratio for `ATATAAAAAA` and stop.
1.01

Item `GCCCGTTCGG` : provide switch fluorescence ratio
1.01

Name the recorded switch fluorescence ratio of the item `CGGACACTTT` in your answer.
1.02

Quick one: give measured switch fluorescence ratio for `TTAAGGATGT`
1

Return the recorded switch fluorescence ratio value; entry: `GTTGTTTTTT`
0.988

Specify switch fluorescence ratio for `GCGTTATAAG` and stop.
1.01

Supply reported switch fluorescence ratio belonging to this sequence: `TACATTAGGC`
1.05

Look up and report measured switch fluorescence ratio for this entry: `TTGATTAATT`
0.993

Supply recorded switch fluorescence ratio for `ATGCTTATGG` here.
0.994

Return switch fluorescence ratio for the following sequence: `TTGGATGAAA`
1.03

Note down switch fluorescence ratio recorded for `GTTAGAATAA`
0.958

# return recorded switch fluorescence ratio for input `AACTGTAGAC`
1.12

Write down switch fluorescence ratio measured for item `AAAGATGGCT`
0.98

For the sequence `TATGTCAGCT` , give its reported switch fluorescence ratio.
1.01

For the sequence `GCGAGAGGGT` , give its reported switch fluorescence ratio.
0.974

Using the record for `GGAAGCGTTC` , state its measured switch fluorescence ratio.
1.03

Tell me measured switch fluorescence ratio for `GAGGTATTTT` please.
1.34

Query switch fluorescence ratio for `ACTCCTAACC`
1.26

// Input: `CGCGGGAATG` . Output its switch fluorescence ratio only.
1.05

Identify switch fluorescence ratio associated with the sequence `TTTGTAGATC`
1.06

Give recorded switch fluorescence ratio. `ACGTCAAGAG`
1.45

For the sequence `CGGTTGTAGT` , give its measured switch fluorescence ratio value.
0.993

Give me measured switch fluorescence ratio, please, for this sequence: `AACTAGGCGC`
0.988

Please report switch fluorescence ratio for the following sequence: `TTTTAAGGTG`
1.39

Could you please provide reported switch fluorescence ratio for `GGAGTATATC` ? Thanks!
1.08

Return the recorded switch fluorescence ratio value; entry: `GGGGATGTGT`
1

Give switch fluorescence ratio for the following sequence: `GGGTCCTTGT`
1.01

Item `AGTGAATCTG` : provide switch fluorescence ratio
0.992

// Input: `ATCAGGCGTA` . Output its switch fluorescence ratio only.
0.975

Hello, please tell me recorded switch fluorescence ratio for this one: `TGAGTATTGG`
0.99

Note down switch fluorescence ratio recorded for `CGACTTACAT`
1.24

Please supply the value of reported switch fluorescence ratio for the item `AGAGTTAGGT`
1.02

Return switch fluorescence ratio (reported value) for this sequence: `GTCGTCTAAG`
0.973

Indicate the recorded switch fluorescence ratio value for this sequence: `CGTCCGGGGA`
1.56

Hello, please tell me recorded switch fluorescence ratio for this one: `CGCCGGTTGG`
0.997
